- system_tested: T1, CD40L (Homo sapiens, UniProt P29965)
- T1 sequence (P29965 113-261 limits assumed): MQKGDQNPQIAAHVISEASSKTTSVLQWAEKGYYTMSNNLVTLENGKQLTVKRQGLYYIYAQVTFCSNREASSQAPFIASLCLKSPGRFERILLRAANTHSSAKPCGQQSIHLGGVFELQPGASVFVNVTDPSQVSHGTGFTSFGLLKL
- assay_summary: Octet Red label-free association/dissociation analysis
- Format: binding
- measurement_conditions: base peptides; equilibrium dissociation constant; read-out: KD
measure_name: pKd
Notebook: values listed as pKd are -log10 of the concentration (mol/L).

*Q* Look up pKd: LAEHAVWSLKcFPDWEWYNINIFGTDDPNHFWVEcDGHGKILFPGYPEGYYENHFLHSFELED (not fully specified) peptide: LAEHAVWSLKCFPDWEWYNINIFGTDDPNHFWVECDGHGKILFPGYPEGYYENHFLHSFELED
*A* 8.10
